Assign pIC50 to each entry below.
System: KRAS PDC tumor spheroids (HUVEC+MSC), viability
Assay: Anticancer human tumor 254851-301-R-J1-PDC patient-derived colon carcinoma cell line growth inhibition [KRAS2]
Settings: curve of first compound; second compound 0.0316 µM
pIC50: −log10 of the molar value.

What does the record list as pIC50 for COc1cc2nccc(Oc3ccc(NC(=O)C4(C(=O)Nc5ccc(F)cc5)CC4)cc3)c2cc1OC + C=CC(=O)N1CCN(c2nc(OCC3CCCN3C)nc3c2CCN(c2cccc4cccc(C)c24)C3)CC1CC#N ?
< 5.00

Query CCNC(=O)CC1N=C(c2ccc(Cl)cc2)c2cc(OC)ccc2-n2c(C)nnc21 (stereo not drawn) + C=CC(=O)N1CCN(c2nc(OCC3CCCN3C)nc3c2CCN(c2cccc4cccc(C)c24)C3)CC1CC#N next
< 5.00

Query O=C(c1cc(Cc2n[nH]c(=O)c3ccccc23)ccc1F)N1CCN(C(=O)C2CC2)CC1 + C=CC(=O)N1CCN(c2nc(OCC3CCCN3C)nc3c2CCN(c2cccc4cccc(C)c24)C3)CC1CC#N next
< 5.00

###

Assign IC50 to each entry below.
Test system: KRAS PDC tumor spheroids (HUVEC+MSC), viability
Assay: Anticancer human tumor 254851-301-R-J1-PDC cell line growth inhibition [KRAS2];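 note: spheroids exposed to compounds for seven days before readout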
Conditions: curve of first compound; second compound 0.316 µM
Description: Multicellular complex tumor spheroid response to RAS pathway inhibitors in combination with a targeted agents in patient-derived cell lines with oncogenic KRAS variants from multiple cancer types A high-throughput screen of multi-cell type tumor spheroids was designed to identify active combinations of targeted small molecules and KRAS pathway inhibitors. […] Compounds. […] If the clinical Cmax for an agent had not been determined, the highest concentration tested was 10 microM. […]

What does the record list as IC50 for Cn1nccc1Nc1nccc(-c2cc3c(s2)C(C)(C)N(CCN2CCOCC2)C3=O)n1 + C=CC(=O)N1CCN(c2nc(=O)n(-c3c(C)ccnc3C(C)C)c3nc(-c4c(O)cccc4F)c(F)cc23)C(C)C1 ?
3750 nM

Query CC(C)NCC(C(=O)N1CCN(c2ncnc3c2C(C)CC3O)CC1)c1ccc(Cl)cc1 (stereo unspecified) + C=CC(=O)N1CCN(c2nc(=O)n(-c3c(C)ccnc3C(C)C)c3nc(-c4c(O)cccc4F)c(F)cc23)C(C)C1 next
> 10000 nM

Query Cn1ncnc1[C@H]1c2n[nH]c(=O)c3cc(F)cc(c23)N[C@@H]1c1ccc(F)cc1 + COc1cc2nc(C)nc(NC(C)c3cc(N)cc(C(F)(F)F)c3)c2cc1OC1CCOC1 next
> 100 nM

Query CC(C)NCC(C(=O)N1CCN(c2ncnc3c2C(C)CC3O)CC1)c1ccc(Cl)cc1 (stereo unspecified) + CC1OCC2(CCN(c3cnc(Sc4ccnc(N)c4Cl)c(N)n3)CC2)C1N next
> 10000 nM

Query CC1COCCN1c1cc(-c2ccnn2C)c2ccnc(-c3ccn[nH]3)c2n1 (stereo unspecified) + COc1cc2nc(C)nc(NC(C)c3cc(N)cc(C(F)(F)F)c3)c2cc1OC1CCOC1 next
425 nM

Query CC(C)NCC(C(=O)N1CCN(c2ncnc3c2C(C)CC3O)CC1)c1ccc(Cl)cc1 (stereo unspecified) + C=CC(=O)N1CCN(c2nc(OCC3CCCN3C)nc3c2CCN(c2cccc4cccc(C)c24)C3)CC1CC#N next
> 10000 nM

Query CC(C)n1nc(-c2ccc3oc(N)nc3c2)c2c(N)ncnc21 + CC1OCC2(CCN(c3cnc(Sc4ccnc(N)c4Cl)c(N)n3)CC2)C1N next
20.5 nM

Query COC(=O)c1ccc2c(C(=Nc3ccc(N(C)C(=O)CN4CCN(C)CC4)cc3)c3ccccc3)c(O)[nH]c2c1 + COc1cc2nc(C)nc(NC(C)c3cc(N)cc(C(F)(F)F)c3)c2cc1OC1CCOC1 next
> 10000 nM

Query COC(=O)c1ccc2c(C(=Nc3ccc(N(C)C(=O)CN4CCN(C)CC4)cc3)c3ccccc3)c(O)[nH]c2c1 + C=CC(=O)N1CCN(c2nc(OCC3CCCN3C)nc3c2CCN(c2cccc4cccc(C)c24)C3)CC1CC#N next
> 10000 nM

Query Cn1ncnc1[C@H]1c2n[nH]c(=O)c3cc(F)cc(c23)N[C@@H]1c1ccc(F)cc1 + C=CC(=O)N1CCN(c2nc(=O)n(-c3c(C)ccnc3C(C)C)c3nc(-c4c(O)cccc4F)c(F)cc23)C(C)C1 next
> 100 nM

Query CC1COCCN1c1cc(-c2ccnn2C)c2ccnc(-c3ccn[nH]3)c2n1 (stereo unspecified) + CC1OCC2(CCN(c3cnc(Sc4ccnc(N)c4Cl)c(N)n3)CC2)C1N next
323 nM

###

Test system: KRAS PDC tumor spheroids (HUVEC+MSC), viability
Assay: Anticancer human tumor 254851-301-R-J1-PDC cell line growth inhibition [KRAS2];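 note: spheroids exposed to compounds for seven days before readout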
Settings: curve of first compound; second compound 1 µM
From the text: Multicellular complex tumor spheroid response to RAS pathway inhibitors in combination with a targeted agents in patient-derived cell lines with oncogenic KRAS variants from multiple cancer types A high-throughput screen of multi-cell type tumor spheroids was designed to identify active combinations of targeted small molecules and KRAS pathway inhibitors. […] Compounds. […] If the clinical Cmax for an agent had not been determined, the highest concentration tested was 10 microM. […]
Assign IC50 to each entry below.
I only need the number, in nM, no unit after it.

Form field - read-out: IC50; system: KRAS PDC tumor spheroids (HUVEC+MSC), viability; submitted item: Cn1nccc1Nc1nccc(-c2cc3c(s2)C(C)(C)N(CCN2CCOCC2)C3=O)n1 + COc1cc2nc(C)nc(NC(C)c3cc(N)cc(C(F)(F)F)c3)c2cc1OC1CCOC1
1530

Query CC(=O)OC12COC1CC(O)C1(C)C(=O)C(O)C3=C(C)C(OC(=O)C(O)C(NC(=O)OC(C)(C)C)c4ccccc4)CC(O)(C(OC(=O)c4ccccc4)C21)C3(C)C (stereo not drawn) + CC1OCC2(CCN(c3cnc(Sc4ccnc(N)c4Cl)c(N)n3)CC2)C1N next
168

###

Assign IC50 to each entry below.
Tested on: KRAS PDC tumor spheroids (HUVEC+MSC), viability
Assay: Anticancer human tumor 254851-301-R-J1-PDC cell line growth inhibition [KRAS2];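 note: spheroids exposed to compounds for seven days before readout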
Conditions: curve of first compound; second compound 1 µM
I only need the number, in nM, no unit after it.

What does the record list as IC50 for CCN1CCN(Cc2ccc(Nc3ncc(F)c(-c4cc(F)c5nc(C)n(C(C)C)c5c4)n3)nc2)CC1 + COc1cc2nc(C)nc(NC(C)c3cc(N)cc(C(F)(F)F)c3)c2cc1OC1CCOC1 ?
549

Query CCNC(=O)CC1N=C(c2ccc(Cl)cc2)c2cc(OC)ccc2-n2c(C)nnc21 (centres undefined) + COc1cc2nc(C)nc(NC(C)c3cc(N)cc(C(F)(F)F)c3)c2cc1OC1CCOC1 next
1940

Query COc1cc(Nc2ncc3c(n2)-c2ccc(Cl)cc2C(c2c(F)cccc2OC)=NC3)ccc1C(=O)O + C=CC(=O)N1CCN(c2nc(OCC3CCCN3C)nc3c2CCN(c2cccc4cccc(C)c24)C3)CC1CC#N next
78

Query Cn1nccc1Nc1nccc(-c2cc3c(s2)C(C)(C)N(CCN2CCOCC2)C3=O)n1 + C=CC(=O)N1CCN(c2nc(OCC3CCCN3C)nc3c2CCN(c2cccc4cccc(C)c24)C3)CC1CC#N next
1660

Query CC(=O)Nc1cccc(-n2c(=O)n(C3CC3)c(=O)c3c(Nc4ccc(I)cc4F)n(C)c(=O)c(C)c32)c1 + CC1OCC2(CCN(c3cnc(Sc4ccnc(N)c4Cl)c(N)n3)CC2)C1N next
2.18

Query Cn1nccc1Nc1nccc(-c2cc3c(s2)C(C)(C)N(CCN2CCOCC2)C3=O)n1 + CNCc1ccccc1-c1csc(C(C)Nc2nc(C)nc3cc(OC)c(OC)cc23)c1 next
1610

Query CC(=O)Nc1cccc(-n2c(=O)n(C3CC3)c(=O)c3c(Nc4ccc(I)cc4F)n(C)c(=O)c(C)c32)c1 + CNCc1ccccc1-c1csc(C(C)Nc2nc(C)nc3cc(OC)c(OC)cc23)c1 next
2.4

Query CC(=O)Nc1cccc(-n2c(=O)n(C3CC3)c(=O)c3c(Nc4ccc(I)cc4F)n(C)c(=O)c(C)c32)c1 + C=CC(=O)N1CCN(c2nc(=O)n(-c3c(C)ccnc3C(C)C)c3nc(-c4c(O)cccc4F)c(F)cc23)C(C)C1 next
6.52

Query CC(=O)Nc1cccc(-n2c(=O)n(C3CC3)c(=O)c3c(Nc4ccc(I)cc4F)n(C)c(=O)c(C)c32)c1 + COc1cc2nc(C)nc(NC(C)c3cc(N)cc(C(F)(F)F)c3)c2cc1OC1CCOC1 next
2.77

###

Tested on: KRAS PDC tumor spheroids (HUVEC+MSC), viability
Assay: Anticancer human tumor 254851-301-R-J1-PDC cell line growth inhibition [KRAS2];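 note: spheroids exposed to compounds for seven days before readout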;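 for viability, T/C: 100% = DMSO vehicle control luminescence of the spheroids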
Conditions: second compound 0.1 µM; first compound 0.001 µM; stronger effect = lower value
Assign viability, T/C to each entry below.

What does the record list as viability, T/C for CN(C)C/C=C/C(=O)Nc1cc2c(Nc3ccc(F)c(Cl)c3)ncnc2cc1O[C@H]1CCOC1 + COc1cc2nc(C)nc(NC(C)c3cc(N)cc(C(F)(F)F)c3)c2cc1OC1CCOC1 ?
110%

Query CN(C)C/C=C/C(=O)Nc1cc2c(Nc3ccc(F)c(Cl)c3)ncnc2cc1O[C@H]1CCOC1 + C=CC(=O)N1CCN(c2nc(OCC3CCCN3C)nc3c2CCN(c2cccc4cccc(C)c24)C3)CC1CC#N next
101%

Query CC(=O)Nc1cccc(-n2c(=O)n(C3CC3)c(=O)c3c(Nc4ccc(I)cc4F)n(C)c(=O)c(C)c32)c1 + CC1OCC2(CCN(c3cnc(Sc4ccnc(N)c4Cl)c(N)n3)CC2)C1N next
85.7%
